Settings: 25 °C
Property measured: solubility

Molecule	solubility
Cc1c(Cl)ccc(OC(C)C(O)=Nc2ccccc2)c1Cl (configuration not stated)	0.0987 µM
O=C(OCc1ccccc1)c1sc(Cl)nc1C(F)(F)F	1.55 µM
N#Cc1c[nH]cc1-c1cccc(Cl)c1Cl	20.2 µM
CCCCOC(=O)N(C)SN(C)C(=O)Oc1cccc2c1OC(C)(C)C2	27.4 µM
COP(=S)(OC)Oc1c(Cl)cc(C)cc1Cl	2.2 µM
CON(C)C(=O)Nc1ccc(Oc2ccc3c(c2)OC(C)(OC)CC3(C)C)cc1 (configuration not stated)	0.999 µM
Cc1ccc(C(=O)COc2c(C(=O)c3ccc(Cl)c(C)c3Cl)c(C)nn2C)cc1	0.301 µM
O=c1ccc(=O)[nH][nH]1	53500 µM

Ask | Consider the molecule `O=C(O)CCCOc1ccc(Cl)cc1Cl` and give its measured solubility.
Reply | 213 µM

Ask | Let us now turn to `COc1nc(NC(C)C)nc(NC(C)C)n1`
Reply | 3330 µM

---

Collected log10 of solubility values appear next to each entry.
Conditions: 20 °C
Recall that a logarithmic scale is used here: each number is log10 of solubility in µM.

Some solved cases for reference:
Compound	log10 of solubility
Cc1cnc2c(C(=O)O)c(Cl)ccc2c1	3.00
CCCN(CCC)C(=O)SCc1ccccc1	1.72
CCN(C(=O)SCc1ccccc1)C(C)C(C)C (stereo not drawn)	1.27
CN(C(O)=NC(C)(C)c1ccccc1)c1ccccc1	2.65
CCOP(=O)(Oc1ccc(Cl)cc1Cl)Oc1ccc(Cl)cc1Cl	0.23

Ask | Tell me the measured log10 of solubility of CCC(C)c1ccccc1OC(=O)NC (stereo not drawn) , please.
Reply | 3.50

Ask | Same lookup for `COP(=O)(OC)O/C(=C\Cl)c1ccc(Cl)cc1Cl` , please.
Reply | 2.59

Ask | What would you report for `ClC1=C(Cl)C(Cl)(C2(Cl)C(Cl)=C(Cl)C(Cl)=C2Cl)C(Cl)=C1Cl` ?
Reply | -1.28

Ask | How about this compound: CCCSP(=O)(OCC)Oc1cnn(-c2ccc(Cl)cc2)c1 (stereo not drawn)
Reply | 1.96

Ask | // next record CC(Oc1ccc(Oc2cnc3cc(Cl)ccc3n2)cc1)C(=O)O (stereo not drawn)
Reply | -0.06

---

Outcome label depends on logP relative to 4: at/above gives T, below gives F.

Below are worked cases with known answers.
Compound	Class label
N#Cc1c[nH]cc1-c1cccc2c1OC(F)(F)O2	T
COP(=S)(OC)SCC(=O)N(c1ccc(Cl)cc1)C(C)C	F
COP(=S)(OC)Oc1c(Cl)cc(C)cc1Cl	T
CC1(C)CON(Cc2ccccc2Cl)C1=O	F
CCCCC(CC)CN1C(=O)C2C3C=CC(C3)C2C1=O (configuration not stated)	F
CCOc1ccc(C(C)(C)COCc2cccc(Oc3ccccc3)c2)cc1	T
Fc1ccc(C2(Cn3cncn3)OC2c2ccccc2Cl)cc1 (configuration not stated)	F
CC(C)C1CCC(Cc2ccc(Cl)cc2)C1(O)Cn1cncn1 (configuration not stated)	T
CCOC(=O)c1cn2nc(OP(=S)(OCC)OCC)cc2nc1C	F
CCCSP(=O)(OCC)SCCC	F

Ask | # check: logP of `CCCCCOC(=O)COc1cc(N2C(=O)C3=C(CCCC3)C2=O)c(F)cc1Cl` is greater than or equal to 4
Reply | T

Ask | And the next one, `CNc1nc(NC(C)C)nc(SC)n1` ?
Reply | F

These entries and their values trace back to the OPERA property sets (Mansouri et al. 2018).
